Cited source: the array DNA melting data of Ke et al. (doi:10.1101/2024.01.08.574731)

Test: folding enthalpy; higher = less favourable; fluorescence melt of hairpins on a sequencing array, two-state fit
Settings: sodium 0.088 M
Overview of reported folding enthalpy across a group of sequences:
Write it as a number; the unit kcal/mol goes unstated.

Use these answered entries as a reference point.
[
  {
    "Record sequence": "GATCGCGAAAGCGCAATC ((((((....)))..)))",
    "Value observed": -7.96
  },
  {
    "Record sequence": "GATCTCCAGGGAGATC ((((((....))))))",
    "Value observed": -36.5
  },
  {
    "Record sequence": "GCTAAGCGAAAGCTTGGC ((.((((....)))).))",
    "Value observed": -34.3
  }
]

Given the entry GTTGGAGGAAACTTCAAC ((((.((....)).)))) , report its measured folding enthalpy.
-31.4

Given the entry GGATTGAAAAATCC (((((....))))) , report its measured folding enthalpy.
-21.7

Given the entry GGTCAACGAAAGTTCACC (((.(((....))).))) , report its measured folding enthalpy.
-22.3

* * *

Experiment: melting temperature; fluorescence melt of hairpins on a sequencing array, two-state fit, raised by 9.35 °C to match UV melts
Settings: sodium 0.088 M
Endpoint label: Tm (°C)
Write it as a number; the unit °C goes unstated.

Use these answered entries as a reference point.
[
  {
    "Record sequence": "GATCGTTGTTACGATC ((((((....))))))",
    "Scale unit": "°C",
    "Tm": 57.4
  },
  {
    "Record sequence": "GTCTGGGGAAACCTGGAC (((..((....))..)))",
    "Scale unit": "°C",
    "Tm": 41
  },
  {
    "Record sequence": "GGACCAGGAAACTGGTTC (.(((((....))))).)",
    "Scale unit": "°C",
    "Tm": 51.8
  },
  {
    "Record sequence": "GCAGTAGCGAAAGCTTGC (((..(((....))))))",
    "Scale unit": "°C",
    "Tm": 45
  },
  {
    "Record sequence": "GGCAACGAAAGTTAAGCC ((((((....)))..)))",
    "Scale unit": "°C",
    "Tm": 45.7
  },
  {
    "Record sequence": "GATCGATCCATCGATC ((((((....))))))",
    "Scale unit": "°C",
    "Tm": 56.7
  }
]

Given the entry GATCACCGGTGTGATC ((((((....)))))) , report its measured Tm.
54.8

Given the entry GATCTGACACAGATC ((((((...)))))) , report its measured Tm.
48.1

Given the entry GAGCGAACGAAAGTTCTC (((..(((....)))))) , report its measured Tm.
27.4

Given the entry GGAAATGGAAACATTTTC (.(((((....))))).) , report its measured Tm.
38.5

Given the entry GCGACATTTCGC ((((....)))) , report its measured Tm.
48.8

Given the entry GCACCGCGAAAGCAGAGC ((.(.((....)).).)) , report its measured Tm.
41.5

* * *

Experiment: folding enthalpy; higher = less favourable; fluorescence melt of hairpins on a sequencing array, two-state fit
Conditions: sodium 0.088 M
Endpoint label: folding enthalpy (kcal/mol)
Write it as a number; the unit kcal/mol goes unstated.

Use these answered entries as a reference point.
[
  {
    "Record sequence": "GATCGCCACCGCGATC ((((((....))))))",
    "folding enthalpy, kcal/mol": -40.2
  },
  {
    "Record sequence": "GCAACGCGAAAGCTTAGC ((.(.((....)).).))",
    "folding enthalpy, kcal/mol": -7.66
  },
  {
    "Record sequence": "GAAGTGGGAAACCACCTC ((.((((....)))).))",
    "folding enthalpy, kcal/mol": -13.7
  }
]

Given the entry GTTTCCGAAAGGATGAAC ((((((....)))..))) , report its measured folding enthalpy.
-8.12

Given the entry GATGCCGAAAGGCTGATC ((((((....)))..))) , report its measured folding enthalpy.
-9.91

Given the entry GCCCAGCGAAAGCTGCGC ((.((((....)))).)) , report its measured folding enthalpy.
-17.1

* * *

Experiment: folding enthalpy; higher = less favourable; fluorescence melt of hairpins on a sequencing array, two-state fit
Conditions: sodium 0.088 M
Endpoint label: folding enthalpy (kcal/mol)
Write it as a number; the unit kcal/mol goes unstated.

Use these answered entries as a reference point.
[
  {
    "Record sequence": "GATCTAGACATAGATC ((((((....))))))",
    "Value observed": -35
  },
  {
    "Record sequence": "CGGTACGGAAACGTTCCG (((.(((....))).)))",
    "Value observed": -32.4
  }
]

Given the entry GACAAAGGAAACTTTGCC (.(((((....))))).) , report its measured folding enthalpy.
-21.6

Given the entry GGTTTTCGAAAGAAGACC (((.(((....))).))) , report its measured folding enthalpy.
-31.4

Given the entry GAGGTGGGAAACCGCTTC ((.(.((....)).).)) , report its measured folding enthalpy.
-19.1

Given the entry GCCCGAGGAAACTCAGGC (((.(((....))).))) , report its measured folding enthalpy.
-27.2

* * *

Test: folding enthalpy; higher = less favourable; fluorescence melt of hairpins on a sequencing array, two-state fit
Settings: sodium 0.088 M
folding enthalpy vs -30 kcal/mol: at or above is Y, below is N.

[
  {
    "Record sequence": "GCTATGCGAAAGCAATGC ((..(((....)))..))",
    "Category": "Y"
  },
  {
    "Record sequence": "GATCTCCTCGGAGATC ((((((....))))))",
    "Category": "N"
  }
]

Say whether GTCTTTACGAAAGTAGAC (((..(((....)))))) shows folding enthalpy of -30 kcal/mol or more.
Y

Say whether CGGTCGGAAACGAGACCG ((((((....)))..))) shows folding enthalpy of -30 kcal/mol or more.
N

Say whether GCGCCCGAAAGGGACGC ((((((....))).))) shows folding enthalpy of -30 kcal/mol or more.
Y

Say whether GATAGCGGAAACGTTATC ((((.((....)).)))) shows folding enthalpy of -30 kcal/mol or more.
N

* * *

Assay: folding enthalpy; higher = less favourable; fluorescence melt of hairpins on a sequencing array, two-state fit
Settings: sodium 0.088 M
Endpoint label: folding enthalpy

Use these answered entries as a reference point.
[
  {
    "Record sequence": "GTACGTGGAAACACGCAC ((.((((....)))).))",
    "folding enthalpy": "-71.9 kJ/mol"
  },
  {
    "Record sequence": "GATCATCCTGATGATC ((((((....))))))",
    "folding enthalpy": "-174 kJ/mol"
  },
  {
    "Record sequence": "GCAAGCGAAAGCTTATGC ((((((....)))..)))",
    "folding enthalpy": "-61.6 kJ/mol"
  }
]

Given the entry GATCTATATATAGATC ((((((....)))))) , report its measured folding enthalpy.
-196 kJ/mol

Given the entry GCCGTTGGAAACGATGGC (((.(.(....).).))) , report its measured folding enthalpy.
-96.7 kJ/mol

Given the entry GGGTACGGAAACGTGCCC (((.(((....))).))) , report its measured folding enthalpy.
-224 kJ/mol

* * *

Assay: melting temperature; fluorescence melt of hairpins on a sequencing array, two-state fit, raised by 9.35 °C to match UV melts
Conditions: sodium 0.088 M
Endpoint label: Tm
Please don't drop the unit; write it after the number.

Given the entry GTTATCGAAAGATTAAC ((((((....))).))) , report its measured Tm.
29.5 °C

Given the entry GATCCCTCGGGGGATC ((((((....)))))) , report its measured Tm.
61.2 °C

Given the entry GGGTGTACGAAAGTACCC (((..(((....)))))) , report its measured Tm.
53.3 °C

Given the entry GACCGACGAAAGTCGTC (((.(((....)))))) , report its measured Tm.
45 °C

Given the entry CACAAGAAATTGTG (((((....))))) , report its measured Tm.
37.6 °C

* * *

Experiment: folding enthalpy; higher = less favourable; fluorescence melt of hairpins on a sequencing array, two-state fit
Conditions: sodium 0.088 M
Endpoint label: folding enthalpy (kcal/mol)
Write it as a number; the unit kcal/mol goes unstated.

[
  {
    "Record sequence": "GATCCCGATTGGGATC ((((((....))))))",
    "folding enthalpy [kcal/mol]": -36
  }
]

Given the entry GCTCACGGAAACGTGAAC (.(((((....))))).) , report its measured folding enthalpy.
-13

Given the entry GAAGCACGAAAGTGGTTC (((.(((....))).))) , report its measured folding enthalpy.
-31.6

Given the entry GTCACATCGAAAGATGAC (((..(((....)))))) , report its measured folding enthalpy.
-12.8

Given the entry GGAATTGGAAACAATTTC (.(((((....))))).) , report its measured folding enthalpy.
-32.8

Given the entry GATCGAACACTCGATC ((((((....)))))) , report its measured folding enthalpy.
-31
